# Test Target: Prostaglandin G/H synthase 1 (Ovis aries)
# Sequence (P05979 whole entry): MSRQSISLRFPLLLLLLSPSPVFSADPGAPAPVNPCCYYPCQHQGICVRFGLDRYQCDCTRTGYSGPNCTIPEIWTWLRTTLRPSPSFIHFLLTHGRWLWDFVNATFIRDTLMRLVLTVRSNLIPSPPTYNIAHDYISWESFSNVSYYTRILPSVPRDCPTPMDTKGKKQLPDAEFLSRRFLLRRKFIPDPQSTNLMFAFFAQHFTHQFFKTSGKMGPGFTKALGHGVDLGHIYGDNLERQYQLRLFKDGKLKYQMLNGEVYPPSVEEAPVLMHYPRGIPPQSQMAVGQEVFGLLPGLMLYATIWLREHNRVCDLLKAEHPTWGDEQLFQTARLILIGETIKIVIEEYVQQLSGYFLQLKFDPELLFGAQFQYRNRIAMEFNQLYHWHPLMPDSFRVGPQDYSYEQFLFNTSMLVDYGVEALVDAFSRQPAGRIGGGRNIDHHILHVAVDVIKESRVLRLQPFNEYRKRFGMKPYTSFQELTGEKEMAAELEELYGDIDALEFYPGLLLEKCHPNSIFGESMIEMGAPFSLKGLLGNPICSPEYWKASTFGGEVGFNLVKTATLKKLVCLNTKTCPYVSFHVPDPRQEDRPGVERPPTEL
Observation Type: pIC50
One number for each entry, as −log10 of the molar value.

Here is how some compounds turned out for pIC50.
[
  {
    "Compound": "CCCN1C(=O)[C@@H](Oc2ccccc2)[C@H]1c1ccc(S(C)(=O)=O)cc1 (relative stereo)",
    "pIC50": 4.66
  },
  {
    "Compound": "CCCCN1C(=O)[C@@H](Oc2ccccc2)[C@H]1c1ccc(S(C)(=O)=O)cc1 (relative stereo)",
    "pIC50": 4.68
  },
  {
    "Compound": "COc1ccc(N2C(=O)[C@@H](Oc3ccccc3)[C@H]2c2ccc(S(C)(=O)=O)cc2)cc1 (relative stereo)",
    "pIC50": 4.72
  }
]

In: Answer with reported pIC50 of CS(=O)(=O)c1ccc([C@@H]2[C@H](Oc3ccccc3)C(=O)N2c2ccccc2)cc1 (relative stereo)
Out: 4.70
